Molecular target: Beta5 (purified human constitutive proteasome) (Homo sapiens)
pIC50: −log10 of the molar value.
Reported pIC50 values for a set of molecules

Entry `CCc1cccc(C[C@H](NC(=O)CCn2cc(-c3cccc(OC)c3)nn2)B(O)O)c1` : reported pIC50 = ?
6.30 to 7.30

Endpoint output: pIC50 of `O=C(CCn1c(=O)sc2ccccc21)N[C@@H](Cc1ccsc1)B(O)O` . Value?
6.30 to 7.30

Quick one: pIC50 for COc1ccc(C(=O)CC(Cc2ccccc2)C(=O)N[C@@H](Cc2cccc(C(F)(F)F)c2)B(O)O)cc1 (mixture of isomers) ?
5.30 to 6.30

====

// endpoint IC50 / system Beta5 (purified human constitutive proteasome) (Homo sapiens, UniProt P28074)

smi: COc1ccc(C(=O)CCC(=O)N[C@@H](Cc2ccc(OC)c(C(F)(F)F)c2)B(O)O)cc1
tested system: Beta5 (purified human constitutive proteasome) (Homo sapiens, UniProt P28074)
test readout: IC50
value observed: > 5000 nM

Give the measured IC50 of `COc1ccccc1CCC(=O)N[C@@H](Cc1coc2ccccc12)B(O)O` .
< 50 nM

Item under review: `CCc1cccc(C[C@H](NC(=O)CCn2nnc3ccccc32)B(O)O)c1` . Reported IC50?
50 to 500 nM

Entry `CCc1cccc(C[C@H](NC(=O)CCC(=O)c2ccc(OC)cc2)B(O)O)c1` : reported IC50 = ?
> 5000 nM

Requested field: IC50. Item: `COc1ccc(C(=O)CCC(=O)N[C@@H](Cc2cc(F)cc(OC)c2)B(O)O)cc1`
> 5000 nM

State the recorded IC50 for this entry: `O=C(CCn1ncc2ccccc21)N[C@@H](Cc1ccsc1)B(O)O`
50 to 500 nM

Quick check: IC50 of `O=C(N[C@@H](Cc1ccsc1)B(O)O)[C@H](Cc1ccccc1)Cc1cn(-c2ccccc2)nn1` ?
50 to 500 nM

Entry under review: `CCc1cccc(C[C@H](NC(=O)CCC(=O)c2ccc(OC)cc2OC)B(O)O)c1` . Reported IC50?
> 5000 nM

====

Biological target: LMP7 (purified human immuno proteasome) (Homo sapiens, UniProt P28062)
Assay: Determination of LMP7 activity (fluorescence intensity assay, Suc-LLVY-AMC)
Type: biochemical
Conditions: LMP7 vs Beta5

smi: COc1cc(C[C@H](NC(=O)CCn2cnc3ccccc32)B(O)O)ccc1F
Selectivity LMP7 vs Beta5: + (+: Selectivity < 10)

smi: O=C(CCn1ncc2ccccc21)N[C@@H](Cc1ccsc1)B(O)O
Selectivity LMP7 vs Beta5: + (+: Selectivity < 10)

smi: COc1ccc(C[C@H](NC(=O)CCn2cnc3ccccc32)B(O)O)cc1C(F)(F)F
Selectivity LMP7 vs Beta5: + (+: Selectivity < 10)

====

Target: LMP7 (purified human immuno proteasome) (Homo sapiens, UniProt P28062)
Experiment: Determination of LMP7 activity (fluorescence intensity assay, Suc-LLVY-AMC)
Assay type: biochemical
Settings: LMP7 vs Beta5

compound: O=C(CCn1cnc2ccccc21)N[C@@H](Cc1ccc(OC(F)(F)F)cc1)B(O)O [Example 51]
tested system: LMP7 (purified human immuno proteasome) (Homo sapiens, UniProt P28062)
Selectivity LMP7 vs Beta5: + (+: Selectivity < 10)
//
compound: Cc1nc2ccccc2n1CCC(=O)N[C@@H](Cc1ccsc1)B(O)O [Example 55]
tested system: LMP7 (purified human immuno proteasome) (Homo sapiens, UniProt P28062)
Selectivity LMP7 vs Beta5: + (+: Selectivity < 10)
//
compound: COc1ccc2occ(C[C@H](NC(=O)CCn3c(=O)sc4ccccc43)B(O)O)c2c1 [Example 109]
tested system: LMP7 (purified human immuno proteasome) (Homo sapiens, UniProt P28062)
Selectivity LMP7 vs Beta5: + (+: Selectivity < 10)
